# experimentDescription: Cytotoxicity against Swiss mouse peritoneal macrophages after 24 hrs by MTT assay
# Format: cell-based, Peritoneal macrophage cell
Could you please mark Criterion met for values of CC50 at 24 h below 20 µM and Criterion not met for values at or above it?

Use these answered entries as a reference point.
COc1ccc(-c2cn(C3C4=C(OC3(C)C)c3ccccc3C(=O)C4=O)nn2)cc1 (stereo not drawn) | Criterion met
CC1(C)OC2=C(C(=O)c3ccccc3C2=O)C1n1cc(-c2ccccc2)nn1 (stereo not drawn) | Criterion met
CCC(C)(O)c1cn(C2C3=C(OC2(C)C)C(=O)c2ccccc2C3=O)nn1 (stereo not drawn) | Criterion met
CC1(C)CCC2=C(O1)c1ccccc1C(=O)C2=O | Criterion met
CC1(C)CC2=C(O1)C(=O)c1ccccc1C2=O | Criterion met
CC1(C)OC2=C(C(=O)C(=O)c3ccccc32)C1n1cc(-c2ccc([N+](=O)[O-])cc2)nn1 (stereo not drawn) | Criterion met
CCCCCCc1cn(C2C3=C(OC2(C)C)C(=O)c2ccccc2C3=O)nn1 (stereo not drawn) | Criterion met
O=C1C=C(n2cc(CO)nn2)C(=O)c2ccccc21 | Criterion met

Item "CC1(C)CC2=C(O1)c1ccccc1C(=O)C2=O" : CC50 at 24 h beneath 20 µM, strictly?
Criterion met

Given CC1(C)CC(n2cc(C3CCCCC3)nn2)C2=C(O1)C(=O)c1ccccc1C2=O (stereo not drawn) , is recorded CC50 at 24 h strictly lower than 20 µM?
Criterion met

Regarding "Cc1ccc(-c2cn(C3=CC(=O)c4ccccc4C3=O)nn2)cc1" , kindly confirm whether its CC50 at 24 h is beneath 20 µM.
Criterion met

For this compound, is CC50 at 24 h lower than 20 µM? "O=C1C=C(n2cc(-c3ccc(Br)cc3)nn2)C(=O)c2ccccc21"
Criterion not met
